The measurements presented in this section are drawn from patent US20140296354A1.

Recorded melting point by entry

[
  {
    "compound": "COC1OC2COC(c3ccccc3)OC2C(O)C1N(CC(=O)NC1CCCCC1)C(=O)c1ccccc1 (stereo not drawn)",
    "melting point": "261 to 263 °C"
  },
  {
    "compound": "COC1OC2COC(c3ccccc3)OC2C(O)C1N(CC(=O)NC1CCCCC1)C(=O)c1ccc(Br)cc1 (stereo not drawn)",
    "melting point": "291 to 293 °C"
  },
  {
    "compound": "CCOC(=O)CNC(=O)CN(C(=O)c1ccc(Br)cc1)C1C(OC)OC2COC(c3ccccc3)OC2C1O (stereo not drawn)",
    "melting point": "207 to 209 °C"
  },
  {
    "compound": "C#CCCC(=O)N(CC(=O)NC1CCCCC1)Cc1ccccc1",
    "melting point": "138 to 140 °C"
  },
  {
    "compound": "COc1ccc(CN(CC(=O)NC2CCCCC2)C(=O)c2ccc(Br)cc2)cc1",
    "melting point": "174 to 176 °C"
  },
  {
    "compound": "C[C@H](c1ccccc1)N(CC(=O)NC1CCCCC1)C(=O)c1ccc(Br)cc1",
    "melting point": "140 to 142 °C"
  },
  {
    "compound": "CCOC(=O)CNC(=O)CN(Cc1ccc(OC)cc1)C(=O)c1ccccc1",
    "melting point": "94 to 96 °C"
  },
  {
    "compound": "O=C(CN(Cc1ccccc1)C(=O)c1ccccc1)NC1CCCCC1",
    "melting point": "104 to 106 °C"
  },
  {
    "compound": "CC(=O)N(CC(=O)NC1CCCCC1)Cc1ccccc1",
    "melting point": "122 to 124 °C"
  },
  {
    "compound": "O=C(CN(Cc1ccccc1)C(=O)c1ccc([N+](=O)[O-])cc1)NC1CCCCC1",
    "melting point": "190 to 192 °C"
  }
]

Q. // melting point lookup, key: CCOC(=O)CNC(=O)CN(Cc1ccc(OC)cc1)C(=O)c1ccc(Br)cc1
A. 123 to 125 °C

Q. Given the compound O=C(CN(Cc1ccccc1)C(=O)c1ccc(Br)cc1)NC1CCCCC1 , what is its reported melting point?
A. 168 to 170 °C
